Assay: yeast display, Sf9 membrane polyspecificity reagent, FACS + sequencing; frameworks hold sequencing errors
recorded_metric: polyreactivity (PSR sort gate)

Please review the following examples before continuing.
QVQRVESGGGLVQAGGSLRLTCAPSGFIFYYYAMGWYRQAPGKEMQLVAAIDSGGSTYADSVNGRFTISRDNAKNTVYLQMTSLKPEDTAVYYCAADYYLPWYPDYDYWGQGTQVTVSS ... low polyreactivity
QVQLVESGGGLVQAGGSLRLSCAASGSTFAPYAMGWYRQAPGKERELVATISFRGGSTYYADSVKGRFTISRDNEMNTVFLEMNNLKPEDTAVYYCNAQRRYPYGYGYWGQGTQVTVSS ... high polyreactivity
QDQLVESGGGLVQAGGSLRLSCAASGTTFQYNAMGWYRQAPGKERELVAAISGSGGSTYYADSVKGRFTISRDNAKNTVYLEMNSLKPEDTAVYYCARVGYRHGYYNYCGQGTQVTVSS ... high polyreactivity
QVHLVESGGGLVQAGGSLRLICAASGYIFQRNAMGWYRQAPGKEREFVAAITRSGGTTYYADSVKGRFTISRDNAKNTVYLQMNSLKPEDTAGYYCNAPRSDRSVYHYHYWGQGTQVTVSS ... low polyreactivity

With those in mind, consider the next sequence.
Measured polyreactivity (PSR sort gate), QVQLVESGGGLVEAGGSLSLSCAASGSTFYKYSMGLYRQAPGKESELVAAITGSGVSTYYADSVKGRFTMSRDNAKNTVYLQMNSLKPDDTAVYYCNAESRSRPYTSSYDYWGQGTQVTVSS : high polyreactivity

----------
Test: yeast display, Sf9 membrane polyspecificity reagent, FACS + sequencing; frameworks hold sequencing errors
recorded_metric: polyreactivity (PSR sort gate)

Past entries and their recorded results:
QVQLVESGGGLVQAGGSLRLSCAASGSIFYGNAMGWYRPAPGKERELVAGITSGVGTNYADSVKGRFTISRDNAKNTVYLQMNSLKPEDTAVYYCNARYVYWIKGHDYWGQGTQVTVSS ... high polyreactivity
QVQLVESGGGLVQAGGSHRLSCAASGRTFSTYSMGWYRQAPGKERELVAAISSGGGRTYYADSVKGRFTISRDIAKNTVYLQINSLKPEDTAVYDGAADRYFRSRRSYEYWGQGTQVTVSS ... low polyreactivity
QVQLVESGGGLVQAGGSLRLSCAASGSTFTYYTMGWYRQAPGKERELVAAITSGTSTNYADSVKGRFTISRDNAKNTVYLQMNSLTPEDTAVYYEYDYWGQGTQVTVSS ... low polyreactivity
QVQLVESGGGLVQAGGSLRLSCAASGLIFAYNTMGWYRQAPGKERELVAGITSSGSTYYADSVKGRFTISRDNAKNTVYLQMNSLKPEDTAVYYCAAEWDDGRSWYWYYLVGFEYWGQGTQVTVSS ... high polyreactivity
QVQLVESGGGLVQAGGSLRLSCAASGSTFVDYDMGWYRQAPGKERELVAAITYSGARTYYADSVKGRFTISRDNAKNTVYLKMNSLKPEDTAVYYCNADQRSASDQLEFDYWGQGTQVTVSS ... low polyreactivity
QVQLVESGGGLVQAGGSLRLSCAATGRIFDYNVMGWSRQAPGKERELVADINGCGGRTNYADSVKGRFTISRDNAKNSVYLQMNSLKPEDTAVYDCAAEWYSYGARSSYGGSRNDYWGQGSQVTVSS ... low polyreactivity

Here is the next item to consider.
Lookup result for QVQLVESGGGLVQAGGSLRLSCAASGFILRYNAMGWYRQAPGKERELVAAISYTGDRTYYADSVKGRFTISRDNAKNTVYLQMNSLKPEDTAVYYCNAVTYGSYYYWGQGTQVTVSS ; measured polyreactivity (PSR sort gate): high polyreactivity
